These measurements were taken from ChEMBL document CHEMBL5518173.

# protocolDetails: Inhibition of LPS-induced NF-kappaB activation in mouse RAW264.7 cells transfected with luciferase reporter gene pretreated with compounds for 30 mins followed by LPS stimulation for 8 hrs by luciferase reporter gene assay
# Assay type: cell-based
pIC50: −log10 of the molar value.
metric: pIC50

| smilesRepr | measuredResult |
| --- | --- |
| COC(=O)CC[C@@]1(C)[C@@H]2C=C(C(=O)O)CC[C@@H]21 | 4.84 |
